human-cGAS (h-cGAS) (Homo sapiens) data, read-out IC50
Sequence (Q8N884 whole entry): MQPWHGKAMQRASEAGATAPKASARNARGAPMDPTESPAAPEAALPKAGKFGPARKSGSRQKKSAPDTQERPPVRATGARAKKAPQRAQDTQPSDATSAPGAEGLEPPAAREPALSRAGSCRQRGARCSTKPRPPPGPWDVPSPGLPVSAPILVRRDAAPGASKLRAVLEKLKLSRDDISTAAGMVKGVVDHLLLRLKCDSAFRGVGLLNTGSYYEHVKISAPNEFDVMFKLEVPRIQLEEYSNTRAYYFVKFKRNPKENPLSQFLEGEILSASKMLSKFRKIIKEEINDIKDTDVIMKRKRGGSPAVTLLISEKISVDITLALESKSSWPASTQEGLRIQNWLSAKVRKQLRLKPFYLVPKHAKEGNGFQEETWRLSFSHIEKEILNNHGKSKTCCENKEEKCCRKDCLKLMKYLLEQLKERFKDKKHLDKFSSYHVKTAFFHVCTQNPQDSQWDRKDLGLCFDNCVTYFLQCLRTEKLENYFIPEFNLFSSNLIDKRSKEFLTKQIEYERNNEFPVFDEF

Solved cases (2 shown):
STRUCTURE_SMILES_STRING	STUDY_TARGET	IC50
CSc1nnc(NC(=O)c2cc(C3CC3)no2)s1	human-cGAS (h-cGAS) (Homo sapiens)	500 to 1000 nM
CSc1nnc(NC(=O)c2cncc(-c3cccs3)c2)s1	human-cGAS (h-cGAS) (Homo sapiens)	500 to 1000 nM

Okay, next one:
[Q] Record CSc1nnc(NC(=O)c2onc3ccc(Cc4ccc(O)c(O)c4)cc23)s1 : what is its IC50 with human-cGAS (h-cGAS) (Homo sapiens)?
[A] 500 to 1000 nM
